target: Trypsin (type 1× from porcine pancreas) (Sus scrofa, UniProt P00761); construct: Trypsin (5 ug/ml; type 1× from porcine pancreas); purchased Sigma, St. Louis Mo; host or cells: porcine pancreas; assay: Trypsin Assay; assay type: biochemical; design: concentration or dose not given beside the values; conditions: @ 1
Sequence (P00761 9-231): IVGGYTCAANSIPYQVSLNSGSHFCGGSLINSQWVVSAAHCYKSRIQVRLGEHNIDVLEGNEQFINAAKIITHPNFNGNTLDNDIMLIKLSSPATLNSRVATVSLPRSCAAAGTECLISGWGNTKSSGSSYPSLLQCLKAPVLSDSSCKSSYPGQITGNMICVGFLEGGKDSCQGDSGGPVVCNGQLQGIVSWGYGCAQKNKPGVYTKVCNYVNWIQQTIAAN
recorded metric: % Inhibition Trypsin II @ 1 (% @ 1)
Only the number, expressed in % @ 1, is required.

Example results:
N=C(N)c1ccc(CNC(=O)Cn2c(-c3ccccc3)c(Cl)nc(NCCc3ccc(Br)cc3)c2=O)cc1 [1507-06]; 8
N=C(N)c1ccc(CNC(=O)Cn2c(-c3ccccc3)c(Cl)nc(NCc3ccc(F)cc3F)c2=O)cc1 [1507-26]; 11
N=C(N)c1ccc(CNC(=O)Cn2c(-c3cccc(N)c3)c(Cl)nc(NCCc3ccccc3)c2=O)cc1 [Example 86]; 78
Cc1ccc(CCNc2nc(Cl)c(-c3ccccc3)n(CC(=O)NCc3ccc(C(=N)N)cc3)c2=O)cc1 [1507-45]; 0
COc1cccc(CCNc2nc(Cl)c(-c3ccccc3)n(CC(=O)NCc3ccc(C(=N)N)cc3)c2=O)c1 [1507-12]; 12
N=C(N)c1ccc(CNC(=O)Cn2c(-c3ccccc3)c(Cl)nc(NC3CC3)c2=O)cc1 [1507-31]; 2
COc1ccc(CNc2nc(Cl)c(-c3ccccc3)n(CC(=O)NCc3ccc(C(=N)N)cc3)c2=O)cc1 [1507-13]; 8

Consider now this further compound.
Please give the measured % Inhibition Trypsin II @ 1 for this compound: CC(C)CNc1nc(Cl)c(-c2ccccc2)n(CC(=O)NCc2ccc(C(=N)N)cc2)c1=O [1507-32]
0

###

biological target: Trypsin (type 1× from porcine pancreas) (Sus scrofa, UniProt P00761); construct: Trypsin (5 ug/ml; type 1× from porcine pancreas); purchased Sigma, St. Louis Mo; host or cells: porcine pancreas; test: Trypsin Assay; type: biochemical; settings: inhibitor at 100 νM
recorded metric: % Inhibition Trpysin II (100 νM) (%)
Only the number, expressed in %, is required.

Example results:
O=C(Cn1c(-c2ccccc2)c(Cl)nc(NCCc2cccnc2)c1=O)NCCc1ccncc1; 1
O=C(Cn1c(Cc2ccccc2)c(Cl)nc(NCc2ccncc2)c1=O)NCCc1ccncc1; 0
O=C(Cn1c(-c2ccccc2)c(Cl)nc(NCCc2ccc(Cl)cc2)c1=O)NCCc1ccncc1; 0
O=C(Cn1c(CCc2ccccc2)c(Cl)nc(NCCN2CCOCC2)c1=O)NCCc1ccncc1; 0
O=C(Cn1c(-c2cccc(Cl)c2)c(Cl)nc(NCCc2cccc(Cl)c2)c1=O)NCCc1cccnc1 [Example E-0092]; 9

Query for Trypsin (type 1× from porcine pancreas) (Sus scrofa, UniProt P00761): what % Inhibition Trpysin II (100 νM) does the record show for Cc1c(Cl)nc(NCCc2ccccc2)c(=O)n1CC(=O)NCCc1ccncc1 ?
0

Query for Trypsin (type 1× from porcine pancreas) (Sus scrofa, UniProt P00761): what % Inhibition Trpysin II (100 νM) does the record show for O=C(Cn1c(CCc2ccccc2)c(Cl)nc(NCCc2ccccc2)c1=O)NCCc1ccncc1 ?
0

Query for Trypsin (type 1× from porcine pancreas) (Sus scrofa, UniProt P00761): what % Inhibition Trpysin II (100 νM) does the record show for COc1ccc(-c2c(Cl)nc(NCCc3ccncc3)c(=O)n2CC(=O)NCCc2ccncc2)cc1 ?
3

###

target: recombinant soluble tissue factor and recombinant human factor VIIa (TF-VIIa) (Homo sapiens, UniProt P08709); construct: conversion of coagulation factor VII to VIIa by Xa; purchased American Diagnostica, Greenwich Conn; host or cells: factor VIIa purchased; soluble TF made in house in E. coli; assay: TF-VIIa Assay; assay type: biochemical
Sequence (P08709 213-466 limits assumed): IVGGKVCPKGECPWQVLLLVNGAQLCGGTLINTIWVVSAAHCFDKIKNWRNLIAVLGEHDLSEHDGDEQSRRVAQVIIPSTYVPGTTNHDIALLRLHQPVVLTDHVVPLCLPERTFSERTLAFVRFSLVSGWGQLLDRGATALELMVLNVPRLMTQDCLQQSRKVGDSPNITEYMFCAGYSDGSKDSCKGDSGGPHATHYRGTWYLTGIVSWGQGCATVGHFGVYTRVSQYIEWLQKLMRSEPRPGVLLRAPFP
Sequence (P08709 61-212 limits assumed): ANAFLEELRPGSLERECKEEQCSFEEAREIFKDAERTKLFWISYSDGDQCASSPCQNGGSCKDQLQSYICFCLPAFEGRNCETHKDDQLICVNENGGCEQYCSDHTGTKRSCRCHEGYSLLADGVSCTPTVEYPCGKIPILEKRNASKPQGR
Sequence (P13726 33-251 partner limits assumed): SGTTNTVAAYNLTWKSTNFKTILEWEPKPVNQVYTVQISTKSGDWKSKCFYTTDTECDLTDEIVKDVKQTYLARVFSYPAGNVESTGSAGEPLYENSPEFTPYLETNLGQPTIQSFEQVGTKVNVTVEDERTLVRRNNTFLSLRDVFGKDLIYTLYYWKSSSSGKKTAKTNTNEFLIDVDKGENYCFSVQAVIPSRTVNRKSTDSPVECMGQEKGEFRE
recorded metric: % Inhibition TF-VIIa (100 νM) (%)
Only the number, expressed in %, is required.

Example results:
O=C(Cn1c(-c2ccc(-c3ccccc3)cc2)c(Cl)nc(NCc2ccccc2)c1=O)NCCc1ccncc1 [Example E-0109]; 2
O=C(Cn1c(-c2ccc(-c3ccccc3)cc2)c(Cl)nc(NCCN2CCOCC2)c1=O)NCCc1ccncc1; 0
O=C(Cn1c(-c2ccc(-c3ccccc3)cc2)c(Cl)nc(NCCc2cccnc2)c1=O)NCCc1ccncc1; 0
O=C(Cn1c(-c2ccc(-c3ccccc3)cc2)c(Cl)nc(NCc2ccccc2)c1=O)NCCc1ccncc1 [Example E-0049]; 2
O=C(Cn1c(-c2ccc(-c3ccccc3)cc2)c(Cl)nc(NCc2ccccc2)c1=O)NCCc1cccnc1; 0
O=C(Cn1c(-c2ccc(-c3ccccc3)cc2)c(Cl)nc(NCc2ccncc2)c1=O)NCCc1ccncc1; 0
O=C(Cn1c(-c2ccc(-c3ccccc3)cc2)c(Cl)nc(NCCc2ccccc2)c1=O)NCCc1ccncc1 [Example E-0050]; 0
O=C(Cn1c(-c2ccc(-c3ccccc3)cc2)c(Cl)nc(NCCc2ccccc2)c1=O)NCCc1ccncc1 [Example E-0112]; 11
O=C(Cn1c(-c2ccc(-c3ccccc3)cc2)c(Cl)nc(NCCc2ccc(Cl)cc2)c1=O)NCCc1ccncc1 [Example E-0052]; 0

Consider now this further compound.
Please give the measured % Inhibition TF-VIIa (100 νM) for this compound: O=C(Cn1c(-c2ccc(-c3ccccc3)cc2)c(Cl)nc(NCCc2ccc(Cl)cc2)c1=O)NCCc1ccncc1 [Example E-0118]
12

###

target: Trypsin (type 1× from porcine pancreas) (Sus scrofa, UniProt P00761); construct: Trypsin (5 ug/ml; type 1× from porcine pancreas); purchased Sigma, St. Louis Mo; host or cells: porcine pancreas; assay: Trypsin Assay; assay type: biochemical; conditions: cells without % sign; read-out: IC50 Trypsin II
pIC50: −log10 of the molar value.
Give Fulfilled when the value for pIC50 is at least 6. Give Not fulfilled when it is less.

Consider the following illustrative entries.
CC(C(=O)NCc1ccc(C(=N)N)cc1)n1c(-c2ccccc2)c(Cl)nc(NCc2ccccc2)c1=O (stereo not shown) [Example 1517-03]; Not fulfilled
CCC(C)(C)Nc1nc(Cl)c(-c2cccc(N)c2)n(CC(=O)NCc2ccc(C(=N)N)cc2)c1=O; Fulfilled
CC(C(=O)NCc1ccc(C(=N)N)cc1)n1c(-c2ccccc2)c(Cl)nc(NC2CCC2)c1=O (stereo not shown) [Example 1517-11]; Not fulfilled

Continue with the next compound.
Does the compound CCN(CC)CC(C)Nc1nc(Cl)c(-c2cccc(N)c2)n(CC(=O)NCc2ccc(C(=N)N)cc2)c1=O (stereo not shown) have recorded pIC50 that is 6 or more?
Fulfilled

###

biological target: recombinant soluble tissue factor and recombinant human factor VIIa (TF-VIIa) (Homo sapiens, UniProt P08709); construct: conversion of coagulation factor VII to VIIa by Xa; purchased American Diagnostica, Greenwich Conn; host or cells: factor VIIa purchased; soluble TF made in house in E. coli; test: TF-VIIa Assay; assay type: biochemical; conditions: inhibitor at 100 νM
Reported % Inhibition TF-VIIa (100 νM) values for a set of compounds
Only the number, expressed in %, is required.

O=C(Cn1c(-c2ccc(Cl)cc2)c(Cl)nc(NCc2ccccc2)c1=O)NCCc1ccncc1 [Example E-0017]; 0
O=C(Cn1c(-c2cccc(Cl)c2)c(Cl)nc(NCCc2ccc(Cl)cc2)c1=O)NCCc1ccncc1 [Example E-0094]; 2
O=C(Cn1c(CCc2ccccc2)c(Cl)nc(NCCc2ccncc2)c1=O)NCCc1ccncc1; 0

Please give the measured % Inhibition TF-VIIa (100 νM) for this compound: O=C(Cn1c(-c2ccc3c(c2)OCO3)c(Cl)nc(NCCc2cccnc2)c1=O)NCCc1ccncc1
0

Please give the measured % Inhibition TF-VIIa (100 νM) for this compound: COc1ccc(-c2c(Cl)nc(NCCc3cccc(Cl)c3)c(=O)n2CC(=O)NCCc2ccncc2)cc1 [Example E-0103]
2

Please give the measured % Inhibition TF-VIIa (100 νM) for this compound: COc1ccc(-c2c(Cl)nc(NCCc3ccccc3)c(=O)n2CC(=O)NCCc2ccncc2)cc1
0

Please give the measured % Inhibition TF-VIIa (100 νM) for this compound: O=C(Cn1c(-c2cccc(Cl)c2)c(Cl)nc(NCCc2ccc(Cl)cc2)c1=O)NCCc1ccncc1 [Example E-0082]
4

###

target: Trypsin (type 1× from porcine pancreas) (Sus scrofa, UniProt P00761); construct: Trypsin (5 ug/ml; type 1× from porcine pancreas); purchased Sigma, St. Louis Mo; host or cells: porcine pancreas; test: Trypsin Assay; format: biochemical; details: inhibitor at 100 νM
Give 1.0 when the value for % Inhibition Trpysin II (100 νM) is at least 3%. Give 0.0 when it is less.

Cc1c(Cl)nc(NCCN2CCOCC2)c(=O)n1CC(=O)NCCc1ccncc1; 0.0
O=C(Cn1c(-c2ccccc2)c(Cl)nc(NCc2ccccc2)c1=O)NCCc1ccncc1; 0.0
Cc1c(Cl)nc(NCCc2cccnc2)c(=O)n1CC(=O)NCCc1ccncc1; 0.0
O=C(Cn1c(Cc2ccccc2)c(Cl)nc(NCCc2ccccc2)c1=O)NCCc1ccncc1; 0.0
O=C(Cn1c(-c2ccc3c(c2)OCO3)c(Cl)nc(NCc2ccncc2)c1=O)NCCc1ccncc1; 0.0

Does the molecule O=C(Cn1c(-c2cccc(Cl)c2)c(Cl)nc(NCCc2ccccc2)c1=O)NCCc1ccncc1 [Example E-0088] have recorded % Inhibition Trpysin II (100 νM) that is 3% or more?
1.0

Does the molecule COc1ccc(-c2c(Cl)nc(NCCc3ccc(Cl)cc3)c(=O)n2CC(=O)NCCc2ccncc2)cc1 [Example E-0036] have recorded % Inhibition Trpysin II (100 νM) that is 3% or more?
0.0

Does the molecule COc1ccc(-c2c(Cl)nc(NCCc3ccc(Cl)cc3)c(=O)n2CC(=O)NCCc2cccnc2)cc1 have recorded % Inhibition Trpysin II (100 νM) that is 3% or more?
1.0

Does the molecule O=C(Cn1c(-c2ccccc2)c(Cl)nc(NCCc2ccncc2)c1=O)NCCc1ccncc1 have recorded % Inhibition Trpysin II (100 νM) that is 3% or more?
0.0
